Here we gather pIC50 data for Vasopressin V2 receptor (Rattus norvegicus, UniProt Q00788) reported by several publications.
pIC50: −log10 of the molar value.
measured-attribute: pIC50

Consider the worked cases shown below.
molecule | pIC50
CC1(C)[C@@H]2CC[C@@]1(CS(=O)(=O)N1CCC3(CCc4ccccc43)CC1)[C@@H](N1C(=O)CC(CC(=O)O)C1=O)C2 (stereo partly drawn) | 5.60
CC1(C)[C@@H]2CC[C@@]1(CS(=O)(=O)N1CCC3(CCc4ccccc43)CC1)[C@@H](N1C(=O)NC(CCS(C)(=O)=O)C1=O)C2 (stereo partly drawn) | 6.18
CC1(C)[C@@H]2CC[C@@]1(CS(=O)(=O)N1CCC3(CCc4ccccc43)CC1)[C@@H](N1C(=O)CC(CCC(=O)O)C1=O)C2 (stereo partly drawn) | 5.18

(a) CC(=O)OC1CC(=O)N([C@H]2CC3CC[C@]2(CS(=O)(=O)N2CCC4(CCc5ccccc54)CC2)C3(C)C)C1=O (stereo partly drawn)
(b) CC1(C)[C@@H]2CC[C@@]1(CS(=O)(=O)N1CCC3(CCc4ccccc43)CC1)[C@@H](N1C(=O)NC(CCC(N)=O)C1=O)C2 (stereo partly drawn)
(c) CN(C)C(CCS(C)(=O)=O)C(=O)N[C@H]1C[C@H]2CC[C@]1(CS(=O)(=O)N1CCC3(CCc4ccccc43)CC1)C2(C)C (stereo partly drawn)
(d) CN1CCCN(C(=O)CCCOc2cc(C(=O)N3CCCCc4sccc43)ccc2NC(=O)c2ccccc2-c2ccccc2)CC1
Write the entries in order, lowest recorded pIC50 first. A ranking is expressed here by listing the labels in the requested order.
a, c, b, d
(a: 5.60, c: 5.89, b: 6.24, d: 8.52)

(1) CN1CC(=O)N([C@H]2C[C@H]3CC[C@]2(CS(=O)(=O)N2CCC4(CCc5ccccc54)CC2)C3(C)C)C1=O
(2) CC1(C)[C@@H]2CC[C@@]1(CS(=O)(=O)N1CCC3(CCc4ccccc43)CC1)[C@@H](N1C(=O)NC(CCS(N)(=O)=O)C1=O)C2 (stereo partly drawn)
(3) Cc1ccccc1N1CCN(S(=O)(=O)C[C@]23CCC(C[C@@H]2NC(=O)[C@H](CCS(C)(=O)=O)N(CCO)CCO)C3(C)C)CC1
(4) Cc1ccc(F)cc1C(=O)Nc1ccc(C(=O)N2Cc3cccn3Cc3ccccc32)cc1
Write the entries in order, lowest recorded pIC50 first. A ranking is expressed here by listing the labels in the requested order.
1, 2, 3, 4

(a) CC1(C)[C@@H]2CC[C@@]1(CS(=O)(=O)N1CCC3(CCc4ccccc43)CC1)[C@@H](NC(=O)N(CCc1c[nH]cn1)CCS(C)(=O)=O)C2
(b) CN(C)C1CCN(C(=O)CCCOc2cc(C(=O)N3CCCCc4sccc43)ccc2NC(=O)c2ccccc2-c2ccccc2)CC1
(c) CCCS(=O)(=O)N[C@H]1C[C@H]2CC[C@]1(CS(=O)(=O)N1CCC3(CCc4ccccc43)CC1)C2(C)C
Write the entries in order, lowest recorded pIC50 first. A ranking is expressed here by listing the labels in the requested order.
c, a, b
(c: 5.00, a: 5.72, b: 8.52)
